# Experimental Setup: in acetone, 293.15 K
Readout Label: solubility (mole fraction)

[[record]]
chem_smiles = "Cc1c(C(=O)c2c[nH]n(C)c2=O)ccc(S(C)(=O)=O)c1C1=NOCC1"
readout_label = "solubility (mole fraction)"
measured_value = 0.00151


---

# Experimental Setup: in methanol, 293.15 K
Readout Label: solubility (mole fraction)

[[record]]
chem_smiles = "Cc1c(C(=O)c2c[nH]n(C)c2=O)ccc(S(C)(=O)=O)c1C1=NOCC1"
readout_label = "solubility (mole fraction)"
measured_value = 0.000215


---

# Experimental Setup: in toluene, 288.15 K
Readout Label: solubility (mole fraction)

[[record]]
chem_smiles = "Cc1c(C(=O)c2c[nH]n(C)c2=O)ccc(S(C)(=O)=O)c1C1=NOCC1"
measured_value = 0.0003

